- assay-text: Cmax in C57BL/6 mouse at 5 mg/kg, po measured for 6 hrs by LC/MS-MS analysis
- Assay type: ADME, organism-based
- Set-up: dose 5 mg/kg, time 6 hrs, route po
- test-context: in vivo
reported-metric: Cmax (nM)
Numbers only here, please. The scale is nM.

# Cmax of CC1(C)Cn2nc(-c3ccc(F)cn3)c(-c3ccnc4[nH]ncc34)c2CO1 = 700

----------
For each of the compounds below, state its Kp uu at 6 h.
- assay-text: Ratio of unbound fraction in brain to plasma of C57BL/6 mouse at 30 mg/kg, sc measured for 6 hrs by LC/MS-MS analysis
- Format: ADME, organism-based
- test-context: read-out: K(p,uu,brain)
Response field accepts a number only; no unit should be typed.

# Kp uu at 6 h of [2H]C([2H])([2H])C1(C([2H])([2H])[2H])Cn2nc(-c3ccc(F)cn3)c(-c3ccnc4[nH]ncc34)c2CO1 = 0.13

# Kp uu at 6 h of CC1(C)Cn2nc(-c3ccc(F)cn3)c(-c3ccnc4[nH]ncc34)c2CO1 = 0.23

----------
- study-system: Casein kinase I isoform delta (Homo sapiens)
- Sequence (P48730 whole entry, canonical isoform): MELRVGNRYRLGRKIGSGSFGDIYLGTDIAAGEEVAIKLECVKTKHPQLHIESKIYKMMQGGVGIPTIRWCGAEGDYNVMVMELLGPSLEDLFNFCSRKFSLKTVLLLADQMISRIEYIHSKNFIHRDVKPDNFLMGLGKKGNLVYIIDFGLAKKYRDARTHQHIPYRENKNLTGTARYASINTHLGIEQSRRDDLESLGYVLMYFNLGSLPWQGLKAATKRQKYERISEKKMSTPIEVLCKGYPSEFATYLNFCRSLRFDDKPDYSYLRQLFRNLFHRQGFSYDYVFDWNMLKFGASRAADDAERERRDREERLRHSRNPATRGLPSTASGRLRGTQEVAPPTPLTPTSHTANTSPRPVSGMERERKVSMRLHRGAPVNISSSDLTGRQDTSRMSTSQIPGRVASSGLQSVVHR
- assay-text: Displacement of kinase tracer 8 from NanoLuc-tagged CK1 delta (unknown origin) transfected in CHO cells by BRET assay
- Type: cell-based
reported-metric: pIC50
pIC50 field: float, defined as -log10 of concentration (mol/L).

# pIC50 of Cn1cc(-c2ccnc3[nH]ncc23)c(-c2ccc(F)cc2)n1 = 7.44

# pIC50 of Cn1cc(-c2ccnc3[nH]c(C(F)(F)F)cc23)c(-c2ccc(F)cn2)n1 = 6.60

# pIC50 of Fc1ccc(-c2nn3c(c2-c2ccnc(NC4CCOCC4)n2)COCC3)cc1 = 7.35

# pIC50 of Fc1ccc(-c2nn3c(c2-c2ccnc4[nH]ncc24)CCC(F)(F)C3)nc1 = 6.52

----------
- study-system: Mitogen-activated protein kinase kinase kinase 20 (Homo sapiens) (UniProt Q9NYL2)
- Sequence (Q9NYL2 2-800 limits assumed): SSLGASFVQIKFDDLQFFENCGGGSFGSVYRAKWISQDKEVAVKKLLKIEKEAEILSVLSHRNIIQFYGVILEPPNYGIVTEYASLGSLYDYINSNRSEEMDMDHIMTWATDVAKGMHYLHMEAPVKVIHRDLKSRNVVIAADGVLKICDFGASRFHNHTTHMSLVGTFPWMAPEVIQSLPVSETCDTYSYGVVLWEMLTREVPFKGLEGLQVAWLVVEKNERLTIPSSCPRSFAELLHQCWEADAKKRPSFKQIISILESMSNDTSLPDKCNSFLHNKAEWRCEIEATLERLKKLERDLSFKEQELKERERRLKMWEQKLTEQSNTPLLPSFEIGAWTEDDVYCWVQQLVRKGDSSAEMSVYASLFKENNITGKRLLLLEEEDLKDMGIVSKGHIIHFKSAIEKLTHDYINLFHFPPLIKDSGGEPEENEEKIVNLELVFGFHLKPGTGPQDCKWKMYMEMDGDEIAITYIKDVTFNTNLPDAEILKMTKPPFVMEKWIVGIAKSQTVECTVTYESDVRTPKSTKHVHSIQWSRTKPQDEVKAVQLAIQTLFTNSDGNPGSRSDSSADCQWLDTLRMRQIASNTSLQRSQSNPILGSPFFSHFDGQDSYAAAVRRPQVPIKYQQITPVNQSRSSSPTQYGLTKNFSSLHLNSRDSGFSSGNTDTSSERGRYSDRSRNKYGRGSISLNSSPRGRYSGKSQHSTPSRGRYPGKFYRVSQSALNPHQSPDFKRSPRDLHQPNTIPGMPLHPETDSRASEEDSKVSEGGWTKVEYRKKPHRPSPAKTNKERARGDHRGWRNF
- assay-text: Inhibition of ZAK (unknown origin) at 1 uM by radiometric assay relative to control
reported-metric: inhibition (%)
Numbers only here, please. The scale is %.

# inhibition of Cn1cc(-c2ccnc3[nH]c(C(F)(F)F)cc23)c(-c2ccc(F)cn2)n1 = 87

# inhibition of CC1(C)Cn2nc(-c3ccc(F)cn3)c(-c3ccnc4[nH]ccc34)c2CO1 = 20

# inhibition of Cn1cc(-c2ccnc3[nH]ccc23)c(-c2ccc(F)cn2)n1 = 100

# inhibition of Cn1cc(-c2cc(N)nc3[nH]ccc23)c(-c2ccc(F)cn2)n1 = 18

# inhibition of Cc1cnc2[nH]ccc2c1-c1cn(C)nc1-c1ccc(F)cn1 = 30

# inhibition of Fc1ccc(-c2nn3c(c2-c2ccnc4[nH]ccc24)COCC3)nc1 = 9

# inhibition of Cn1cc(-c2c(C#N)cnc3[nH]ccc23)c(-c2ccc(F)cn2)n1 = 40

----------
- study-system: Mitogen-activated protein kinase 14 (Homo sapiens)
- Sequence (Q16539 whole entry): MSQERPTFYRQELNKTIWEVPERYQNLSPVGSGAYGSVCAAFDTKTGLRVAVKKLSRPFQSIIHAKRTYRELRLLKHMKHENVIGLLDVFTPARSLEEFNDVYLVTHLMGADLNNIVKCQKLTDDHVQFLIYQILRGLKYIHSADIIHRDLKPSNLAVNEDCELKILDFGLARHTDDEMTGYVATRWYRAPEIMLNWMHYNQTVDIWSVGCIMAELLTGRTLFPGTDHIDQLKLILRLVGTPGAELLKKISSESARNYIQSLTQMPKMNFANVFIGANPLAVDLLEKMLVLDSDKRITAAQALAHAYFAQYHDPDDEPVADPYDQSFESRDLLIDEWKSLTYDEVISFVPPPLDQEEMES
- assay-text: Inhibition of p38 alpha (unknown origin)
pIC50: −log10 of the molar value.
Each entry gets false (0) if its pIC50 stays under 6, and true (1) if its pIC50 is 6 or above.

Qu. Threshold query (pIC50 >= 6) on Fc1ccc(-c2nn3c(c2-c2ccnc4[nH]ccc24)COCC3)nc1
Ans. false (0)

Qu. Threshold query (pIC50 >= 6) on Cn1cc(-c2cc(N)nc3[nH]ccc23)c(-c2ccc(F)cn2)n1
Ans. false (0)

Qu. Threshold query (pIC50 >= 6) on Cc1cnc2[nH]ccc2c1-c1cn(C)nc1-c1ccc(F)cn1
Ans. false (0)

Qu. Threshold query (pIC50 >= 6) on Cn1cc(-c2ccnc3[nH]c(C(F)(F)F)cc23)c(-c2ccc(F)cn2)n1
Ans. true (1)

Qu. Threshold query (pIC50 >= 6) on Cn1cc(-c2c(C#N)cnc3[nH]ccc23)c(-c2ccc(F)cn2)n1
Ans. false (0)

Qu. Threshold query (pIC50 >= 6) on Cn1cc(-c2ccnc3[nH]ncc23)c(-c2ccc(F)cc2)n1
Ans. true (1)

Qu. Threshold query (pIC50 >= 6) on CC1(C)Cn2nc(-c3ccc(F)cn3)c(-c3ccnc4[nH]ccc34)c2CO1
Ans. false (0)

Qu. Threshold query (pIC50 >= 6) on Cn1cc(-c2ccnc3[nH]ccc23)c(-c2ccc(F)cc2)n1
Ans. true (1)

----------
- assay-text: Clearance in Sprague-Dawley rat at 1 mg/kg, iv measured for 24 hrs by LC-MS/MS analysis
- Type: ADME, organism-based
- test-context: in vivo
For each of the molecules below, state its clearance.
Numbers only here, please. The scale is mL/min/kg.

# clearance of Cn1cc(-c2ccnc3[nH]ncc23)c(-c2ccc(F)cc2)n1 = 23

# clearance of [2H]C([2H])([2H])C1(C([2H])([2H])[2H])Cn2nc(-c3ccc(F)cn3)c(-c3ccnc4[nH]ncc34)c2CO1 = 44

# clearance of Cn1cc(-c2ccnc3[nH]ccc23)c(-c2ccc(F)cn2)n1 = 35

# clearance of CC1(C)Cn2nc(-c3ccc(F)cn3)c(-c3ccnc4[nH]ncc34)c2CO1 = 104

----------
For each of the compounds below, state its inhibition.
- study-system: Serine/threonine-protein kinase NLK (Homo sapiens)
- assay-text: Inhibition of NLK (unknown origin) at 1 uM by radiometric assay relative to control
Numbers only here, please. The scale is %.

# inhibition of Fc1ccc(-c2nn3c(c2-c2ccnc4[nH]ccc24)COCC3)nc1 = 0

# inhibition of CC1(C)Cn2nc(-c3ccc(F)cn3)c(-c3ccnc4[nH]ccc34)c2CO1 = 16

# inhibition of Cn1cc(-c2ccnc3[nH]c(C(F)(F)F)cc23)c(-c2ccc(F)cn2)n1 = 83

# inhibition of Cn1cc(-c2c(C#N)cnc3[nH]ccc23)c(-c2ccc(F)cn2)n1 = 17

# inhibition of Cc1cnc2[nH]ccc2c1-c1cn(C)nc1-c1ccc(F)cn1 = 0

# inhibition of Cn1cc(-c2cc(N)nc3[nH]ccc23)c(-c2ccc(F)cn2)n1 = 0

# inhibition of Cn1cc(-c2ccnc3[nH]ccc23)c(-c2ccc(F)cn2)n1 = 74

----------
- assay-text: Cmax in brain of C57BL/6 mouse at 30 mg/kg, sc measured after 30 mins by LC/MS-MS analysis
- Assay type: ADME, organism-based
- Parameters: time 30 min, dose 30 mg/kg, route sc
reported-metric: Cmax (nM)
Numbers only here, please. The scale is nM.

# Cmax of CC1(C)Cn2nc(-c3ccc(F)cn3)c(-c3ccnc4[nH]ncc34)c2CO1 = 2300

----------
- study-system: Epithelial discoidin domain-containing receptor 1 (Homo sapiens) (UniProt Q08345)
- Sequence (Q08345 whole entry, the tested form may be a part): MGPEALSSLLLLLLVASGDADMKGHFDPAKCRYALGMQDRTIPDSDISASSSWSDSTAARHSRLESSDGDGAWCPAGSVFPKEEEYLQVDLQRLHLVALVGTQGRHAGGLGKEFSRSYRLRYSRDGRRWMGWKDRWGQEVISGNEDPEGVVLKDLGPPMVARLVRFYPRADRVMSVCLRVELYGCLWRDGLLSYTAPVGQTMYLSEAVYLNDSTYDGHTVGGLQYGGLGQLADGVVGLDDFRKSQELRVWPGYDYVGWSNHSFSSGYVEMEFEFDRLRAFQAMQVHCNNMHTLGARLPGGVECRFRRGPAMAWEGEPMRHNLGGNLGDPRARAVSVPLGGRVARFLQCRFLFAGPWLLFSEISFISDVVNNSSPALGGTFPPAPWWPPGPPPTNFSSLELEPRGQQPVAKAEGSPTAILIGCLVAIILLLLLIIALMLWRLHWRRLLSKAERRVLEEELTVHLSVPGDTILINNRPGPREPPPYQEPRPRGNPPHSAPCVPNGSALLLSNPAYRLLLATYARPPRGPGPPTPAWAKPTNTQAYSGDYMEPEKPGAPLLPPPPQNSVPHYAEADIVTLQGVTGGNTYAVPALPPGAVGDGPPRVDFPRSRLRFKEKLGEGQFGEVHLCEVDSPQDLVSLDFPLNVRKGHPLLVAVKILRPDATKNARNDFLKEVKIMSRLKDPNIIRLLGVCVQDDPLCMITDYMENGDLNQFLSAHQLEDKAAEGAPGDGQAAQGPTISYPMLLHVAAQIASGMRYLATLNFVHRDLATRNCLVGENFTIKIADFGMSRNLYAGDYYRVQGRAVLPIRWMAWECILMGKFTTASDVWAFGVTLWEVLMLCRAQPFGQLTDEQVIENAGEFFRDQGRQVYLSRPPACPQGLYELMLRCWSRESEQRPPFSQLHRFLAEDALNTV
- assay-text: Inhibition of DDR1 (unknown origin) at 1 uM by radiometric assay relative to control
Each entry gets False if its inhibition stays under 20%, and True if its inhibition is 20% or above.

Qu. Threshold query (inhibition >= 20%) on Fc1ccc(-c2nn3c(c2-c2ccnc4[nH]ccc24)COCC3)nc1
Ans. False

Qu. Threshold query (inhibition >= 20%) on Cn1cc(-c2ccnc3[nH]c(C(F)(F)F)cc23)c(-c2ccc(F)cn2)n1
Ans. True

Qu. Threshold query (inhibition >= 20%) on Cc1cnc2[nH]ccc2c1-c1cn(C)nc1-c1ccc(F)cn1
Ans. True

Qu. Threshold query (inhibition >= 20%) on Cn1cc(-c2cc(N)nc3[nH]ccc23)c(-c2ccc(F)cn2)n1
Ans. False

Qu. Threshold query (inhibition >= 20%) on Cn1cc(-c2ccnc3[nH]ccc23)c(-c2ccc(F)cn2)n1
Ans. True

Qu. Threshold query (inhibition >= 20%) on CC1(C)Cn2nc(-c3ccc(F)cn3)c(-c3ccnc4[nH]ccc34)c2CO1
Ans. True

----------
- assay-text: Intrinsic clearance in rat liver microsomes at 1 uM preincubated for 5 mins followed by NADPH addition measured for 60 mins by LC-MS/MS analysis
- Format: ADME, Microsome
- test-context: time 65 min, read-out: CLH
Doc: threshold 50 µL/min/mg (exclusive). Items with microsomal CLint at 1 µM beneath it return Y; others return N.

Qu. Does the reported microsomal CLint at 1 µM of the following molecule sit strictly below 50 µL/min/mg? CC1(C)Cn2nc(-c3ccc(F)cn3)c(-c3ccnc4[nH]ncc34)c2CO1
Ans. Y

Qu. Does the reported microsomal CLint at 1 µM of the following molecule sit strictly below 50 µL/min/mg? Cn1cc(-c2ccnc3[nH]ncc23)c(-c2ccc(F)cc2)n1
Ans. Y

Qu. Does the reported microsomal CLint at 1 µM of the following molecule sit strictly below 50 µL/min/mg? CC1(C)Cn2nc(-c3ccc(F)cn3)c(-c3ccnc4[nH]ccc34)c2CO1
Ans. Y

Qu. Does the reported microsomal CLint at 1 µM of the following molecule sit strictly below 50 µL/min/mg? Cn1cc(-c2ccnc3[nH]ccc23)c(-c2ccc(F)cc2)n1
Ans. N

Qu. Does the reported microsomal CLint at 1 µM of the following molecule sit strictly below 50 µL/min/mg? Cn1cc(-c2ccnc3[nH]ccc23)c(-c2ccc(F)cn2)n1
Ans. N

Qu. Does the reported microsomal CLint at 1 µM of the following molecule sit strictly below 50 µL/min/mg? [2H]C([2H])([2H])C1(C([2H])([2H])[2H])Cn2nc(-c3ccc(F)cn3)c(-c3ccnc4[nH]ncc34)c2CO1
Ans. Y
